tgt: Mesothelin (SwissProt reference Q13421-3) (Homo sapiens, UniProt Q13421 37-622)
experimentNotes: cell-based or functional assay
observedProperty: IC50 (nM), HT29 meso+ cells, MTT proliferation assay
Give the quantity in nM, number only.

Example 113, conjugate of anti-mesothelin antibody MF-Ta (antibody, human IgG1, lambda, V domains shown, toxophore-linker on Lys NH, sites not given) VH: QVELVQSGAEVKKPGESLKISCKGSGYSFTSYWIGWVRQAPGKGLEWMGIIDPGDSRTRYSPSFQGQVTISADKSISTAYLQWSSLKASDTAMYYCARGQLYGGTYMDGWGQGTLVTVSS VL: DIALTQPASVSGSPGQSITISCTGTSSDIGGYNSVSWYQQHPGKAPKLMIYGVNNRPSGVSNRFSGSKSGNTASLTISGLQAEDEADYYCSSYDIESATPVFGGGTKLTVLG: 0.4

Now take the following binder into account.
Give reported IC50 (nM), HT29 meso+ cells, MTT proliferation assay value for Example 112, conjugate of anti-mesothelin antibody MF-Ta (antibody, human IgG1, lambda, V domains shown, toxophore-linker on Cys sulfur, sites not given) VH: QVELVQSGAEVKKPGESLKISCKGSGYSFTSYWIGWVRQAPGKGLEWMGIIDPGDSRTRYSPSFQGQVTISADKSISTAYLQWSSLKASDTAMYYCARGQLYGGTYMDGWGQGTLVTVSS VL: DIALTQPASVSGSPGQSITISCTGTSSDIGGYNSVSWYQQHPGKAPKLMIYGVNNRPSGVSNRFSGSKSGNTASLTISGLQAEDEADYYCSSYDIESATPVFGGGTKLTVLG
0.018
